System: B16-F10 cells
MEASUREMENT DESCRIPTION: Melanogenesis inhibition test
Type: cell-based, Mus musculus
CONDITION CONTEXT: sample concentration 0.4%; 3 days; OD 405 nm; tyrosine + α-MSH stimulated
Where a SMILES comes first, the peptide text is derived from it. [ ]: non-standard residue; d: D form. Sar = CNCC(=O)O
REPORTED ENDPOINT: melanin production rate % ± standard deviation (%)
All answers are understood in %, so give the number only.

Enquiry: Find the measured melanin production rate % ± standard deviation of `CC(=O)NCC(=O)NCCCC(=O)O` and report it.
Return: 14.2

Enquiry: Find the measured melanin production rate % ± standard deviation of `NCCC(=O)N[C@@H](Cc1cnc[nH]1)C(=O)O` and report it.
Return: 141

Enquiry: Find the measured melanin production rate % ± standard deviation of O=C1O[C@H]([C@@H](O)CO)C(O)=C1O[C@H]1O[C@H](CO)[C@@H](O)[C@H](O)[C@H]1O [ascorbic acid 2-glucoside (AA2G), ascorbic acid 2-glucoside] and report it.
Return: 76.2

Enquiry: Find the measured melanin production rate % ± standard deviation of `CC(=O)NCC(=O)NCCC(=O)O` and report it.
Return: 11.0

Enquiry: Find the measured melanin production rate % ± standard deviation of CC(=O)NCC(=O)N(C)CC(=O)O [Compound (IV)] (Ac-Gly-[Sar]-OH) and report it.
Return: 15.0

Enquiry: Find the measured melanin production rate % ± standard deviation of O=C1O[C@H]([C@@H](O)CO)C(O)=C1OP(=O)([O-])[O-].[Mg+2] [ascorbic acid 2-phosphate magnesium] and report it.
Return: 88.4

Enquiry: Find the measured melanin production rate % ± standard deviation of `CCOC1=C(O)C(=O)O[C@@H]1[C@@H](O)CO` and report it.
Return: 78.9

---

MEASUREMENT DESCRIPTION: Color stability test (accelerated, 45° C. oven)
Format: physicochemical
CONDITION CONTEXT: 0.5 wt % aqueous solution, 28 days
REPORTED ENDPOINT: Transmittance % (440 nm) (%)
All answers are understood in %, so give the number only.

Enquiry: Find the measured Transmittance % (440 nm) of `CC(=O)NCC(=O)NCCC(=O)O` and report it.
Return: 99.8

Enquiry: Find the measured Transmittance % (440 nm) of `O=C1O[C@H]([C@@H](O)CO)C(O)=C1O` and report it.
Return: 20.8

Enquiry: Find the measured Transmittance % (440 nm) of `OC[C@H]1O[C@@H](Oc2ccc(O)cc2)[C@H](O)[C@@H](O)[C@@H]1O` and report it.
Return: 95.4

---

MEASUREMENT DESCRIPTION: Color stability test (accelerated, 45° C. oven)
Assay type: physicochemical
CONDITION CONTEXT: 0.5 wt % in citric acid buffer solution pH = 6, 14 days
Where a SMILES comes first, the peptide text is derived from it. [ ]: non-standard residue; d: D form. Sar = CNCC(=O)O
Could you please report measured Transmittance % (440 nm) for the items listed next?
All answers are understood in %, so give the number only.

Enquiry: Find the measured Transmittance % (440 nm) of `CC(=O)NCC(=O)NCCC(=O)O` and report it.
Return: 99.4

Enquiry: Find the measured Transmittance % (440 nm) of O=C1O[C@H]([C@@H](O)CO)C(O)=C1OP(=O)([O-])[O-].[Mg+2] [ascorbic acid 2-phosphate magnesium] and report it.
Return: 85.6

Enquiry: Find the measured Transmittance % (440 nm) of `CCOC1=C(O)C(=O)O[C@@H]1[C@@H](O)CO` and report it.
Return: 98.6

Enquiry: Find the measured Transmittance % (440 nm) of `CC(=O)NCC(=O)NCCCC(=O)O` and report it.
Return: 100

Enquiry: Find the measured Transmittance % (440 nm) of `O=c1cc(CO)occ1O` and report it.
Return: 34.8

Enquiry: Find the measured Transmittance % (440 nm) of `O=C1O[C@H]([C@@H](O)CO)C(O)=C1O` and report it.
Return: 0.7

Enquiry: Find the measured Transmittance % (440 nm) of CC(=O)NCC(=O)N(C)CC(=O)O [Compound (IV)] (Ac-Gly-[Sar]-OH) and report it.
Return: 100

Origin of the recorded values: patent US8927499B2
